# Study target: Histone deacetylase
# Experimental details: Inhibition of HDAC in human HeLa cell extract by fluorescence plate reader assay
# Type: cell-free
Labelling: IC50 reported below 200 µM becomes T; at or above becomes F.

Nc1ccccc1NC(=O)CCCCCC(=O)Nc1ccccc1 :: T
COc1ccccc1NC(=O)CCCCCC(=O)Nc1ccccc1 :: T
Nc1ccccc1NC(=O)CCCCCCC(=O)Nc1ccccc1 :: T

In the record for Nc1ccc(NC(=O)CCCCCCC(=O)Nc2ccccc2)cc1 , is IC50 less than 200 µM?
T

And COc1ccc(NC(=O)CCCCCC(=O)Nc2ccccc2)c(OC)c1 ?
F

Quick one: O=C(CCCCCC(=O)Nc1cnc2ccccc2c1)Nc1ccccc1
T

Let us now turn to Nc1cccc(NC(=O)CCCCCC(=O)Nc2ccccc2)c1
F

Same thing, different compound: O=C(CCCCCC(=O)Nc1ccccn1)Nc1ccccc1
T

And then COc1ccccc1NC(=O)CCCCCCC(=O)Nc1ccccc1 , what is it?
F

Also O=C(CCCCCC(=O)Nc1cccc2cccnc12)Nc1ccccc1 ?
T

Same lookup for O=C(CCCCCCC(=O)Nc1ccccn1)Nc1ccccc1 , please.
T
